# Test system: wild-type HAdV5
# method-description: HAdV DNA quantification by real-time PCR (DNA replication)
# Type: cell-based, HAdV-5
# condition-details: FIG. 6A; 24 h; 10-fold plaque IC50
measured-endpoint: inhibition of HAdV-5 DNA replication (qPCR)

Consider the following illustrative entries.
[[record]]
compound = "CC(C)(CCO)Nc1ccc(NC(=O)c2cc(Cl)ccc2O)c(Cl)c1"
recorded_result = "low inhibition"

[[record]]
compound = "CC(CCO)Nc1ccc(NC(=O)c2cc(Cl)ccc2O)c(Cl)c1 (stereo not drawn)"
recorded_result = "low inhibition"

[[record]]
compound = "CC1(Nc2ccc(NC(=O)c3cc(Cl)ccc3O)c(Cl)c2)CCCC1"
recorded_result = "moderate inhibition"

[[record]]
compound = "O=C(Nc1ccc(NCc2ccc(O)cc2)cc1Cl)c1cc(Cl)ccc1O"
recorded_result = "low inhibition"

[[record]]
compound = "O=C(Nc1ccc(NC2CCCC2)cc1Cl)c1cc(Cl)ccc1O"
recorded_result = "moderate inhibition"


The record that follows has no inhibition of HAdV-5 DNA replication (qPCR) shown yet.
Input line: Which measured inhibition of HAdV-5 DNA replication (qPCR) value corresponds to O=C(Nc1ccc(NCc2ccc(O)nc2)cc1Cl)c1cc(Cl)ccc1O ?
Output line: low inhibition
